# Assayed System: T1, cynomolgus GPC3 on stably transfected SK-HEP-1 cells (cynomolgus, UniProt A0A2K5VK50 24-553)
# T1 construct: whole, on cells; also called SK-HEP-1::cyno GPC3; SK-HEP-1::cynomolugus GPC3
# Assay Method Text: MSD-based (ECL) cell binding assay on transfected SK-HEP-1 cells
Measure Name: pEC50
Conceptually, pEC50 converts a concentration in mol/L into minus its log10.

Incoming: Return reported pEC50. Input binder: lipocalin mutein of SEQ ID NO: 16 (designed binder, hNGAL (Lcn2) mutein; also called optimized GPC3 specific lipocalin mutein) QDSTSDLIPAPPLSKVPLQQNFQDNQFQGKWYVVGRAGNVGLREDKDPPKMRATIYELKEDKSYDVTGVRFDSKKVTYSIGTFVPGSQPGEFTLGQIKSEPGNTANLVRVVSTNYNQHAMVFFKEVYQNREIFFIILYGRTKELTSELKENFIRFSKSLGLPENHIVFPVPIDQAIDGSAWSHPQFEK
Outgoing: 8.60

Incoming: Return reported pEC50. Input binder: lipocalin mutein of SEQ ID NO: 10 (designed binder, hNGAL (Lcn2) mutein; also called optimized GPC3 specific lipocalin mutein) QDSTSDLIPAPPLSKVPLQQNFQDNQFQGKWYVVGRAGNGALREDKDPPKMWATIYELKEDKSYDVTNVRFARKKCVYSIGTFVPGSQPGEFTLGPIKSEPGNTASLVRVVSTNYNQHAMVFFKEVYQNREIFFIILYGRTKELTSELKENFIRFSKSLGLPENHIVFPVPIDQCIDGSAWSHPQFEK
Outgoing: 9.10

Incoming: Return reported pEC50. Input binder: lipocalin mutein of SEQ ID NO: 15 (designed binder, hNGAL (Lcn2) mutein; also called optimized GPC3 specific lipocalin mutein) QDSTSDLIPAPPLSKVPLQQNFQDNQFQGKWYVVGRAGNVGLREDKDPPKMRATIYELKEDKSYDVTGVRFGEKKIKYSIGTFVPGSQPGEFTLGQIKSQPGDTANLVRVVSTNYNQHAMVFFKEVYQNREIFFIILYGRTKELTSELKENFIRFSKSLGLPENHIVFPVPIDQAIDGSAWSHPQFEK
Outgoing: 8.80

Incoming: Return reported pEC50. Input binder: lipocalin mutein of SEQ ID NO: 3 (designed binder, hNGAL (Lcn2) mutein; also called non-optimized GPC3-specific Lcn2 mutein; mother clone) QDSTSDLIPAPPLSKVPLQQNFQDNQFHGKWYVVGVAGNAMLREDKDPLKMRATIYELKEDKSYNVTGVSFWRKKCHYKIGTFVPGSQPGEFTLGDIKSGPGQTSNLVRVVSTNYNQHAMVFFKEVRQNREWFAITLYGRTKELTSELKENFIRFSKSLGLPENHIVFPVPIDQCIDGSAWSHPQFEK
Outgoing: 7.52

Incoming: Return reported pEC50. Input binder: lipocalin mutein of SEQ ID NO: 13 (designed binder, hNGAL (Lcn2) mutein; also called optimized GPC3 specific lipocalin mutein) QDSTSDLIPAPPLSKVPLQQNFQDNQFQGKWYVVGRAGNLGLREDKDPPKMWATIYELKEDKSYDVTNVRFARKKCMYSIGTFVPGSQPGEFTLGQIKSEPGSTANLVRVVSTNYNQHAMVFFKEVYQNREIFFITLYGRTKELTSELKENFIRFSKSLGLPENHIVFPVPIDQCIDGSAWSHPQFEK
Outgoing: 9.22

Incoming: Return reported pEC50. Input binder: lipocalin mutein of SEQ ID NO: 4 (designed binder, hNGAL (Lcn2) mutein; also called non-optimized GPC3-specific Lcn2 mutein; mother clone) QDSTSDLIPAPPLSKVPLQQNFQDNQFHGKWYVVGRAGNVALREDKDPPKMRATIYELKEDKSYNVTNVRFAMKKCMYSIGTFVPGSQPGEFTLGQIKSEPGNTSNLVRVVSTNYNQHAMVFFKEVYQNREIFFITLYGRTKELTSELKENFIRFSKSLGLPENHIVFPVPIDQCIDGSAWSHPQFEK
Outgoing: 8.24
